- assay_comment: Two chamber Ussing type permeability apparatus, transscleral rapamycin delivery
- Format: in vitro ADME, human
- condition_summary: human, 5% DMSO in BSS; read-out: permeability coefficient KTRANS
measurement_kind: Papp at 36 h, 92 μg/mL

1) CO[C@H]1C[C@@H]2CC[C@@H](C)[C@@](O)(O2)C(=O)C(=O)N2CCCC[C@H]2C(=O)O[C@H]([C@H](C)C[C@@H]2CC[C@@H](O)[C@H](OC)C2)CC(=O)[C@H](C)/C=C(\C)[C@@H](O)[C@@H](OC)C(=O)[C@H](C)C[C@H](C)/C=C/C=C/C=C/1C    ~8.82 ×10⁻⁶ cm/s
